Values compiled from ChEMBL document CHEMBL1136434.

Reported values: cKi for Cyclin-dependent kinase 2 (Homo sapiens) (UniProt P24941), one per item.
All answers are understood in nM, so give the number only.

# annotated cases, reported cKi shown
CN(C)CCCC(=O)Nc1n[nH]c2nnc(-c3ccccc3)cc12 ... 1700
CCN1CCC(CC(=O)Nc2n[nH]c3nnc(-c4cccc(F)c4F)cc23)CC1 ... 540
O=C(Nc1n[nH]c2nnc(-c3cccc(F)c3F)cc12)C1CCCC1 ... 5

For record CCN1CCC(C(=O)Nc2n[nH]c3nnc(-c4cccc(F)c4F)cc23)CC1 the listed cKi is 450

Quick note, cKi for O=C(Nc1n[nH]c2nnc(-c3cccnc3)cc12)C1CC1 landed at 5
